Target: stromelysin (MMP-3) (Homo sapiens, UniProt P08254)
Construct: enzymatic activity of the catalytic domains of human stromelysin and of neutrophil collagenase
Sequence (P08254 100-272 limits assumed): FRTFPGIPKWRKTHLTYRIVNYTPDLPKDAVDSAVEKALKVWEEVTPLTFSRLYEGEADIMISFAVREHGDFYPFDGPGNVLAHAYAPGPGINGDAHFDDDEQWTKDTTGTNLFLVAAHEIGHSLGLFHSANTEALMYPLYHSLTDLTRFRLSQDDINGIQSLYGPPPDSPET
Assay: Enzyme inhibition of the catalytic domain of human stromelysin (fluorogenic substrate)
Details: 15 min preincubation, pH=6.5, fluorescence 328 nm (ex)/393 nm (em)
Please respond with reported IC50 for every item in the list.
Please answer using the number first and the unit second.

In [3]: df
Out[3]:
                                   molecule  assay_value
0  O=C(O)[C@H](CCCN1C(=O)C2CSCN2C1=O)NS(=O)(=O)c1ccc(-c2ccc(Cl)cc2)cc1 (stereo partly shown) [Example 158]         7 nM
1  O=C(NCCC[C@H](NS(=O)(=O)c1ccc(-c2ccc(Cl)cc2)cc1)C(=O)O)c1cnccn1 [Example 19]        20 nM
2  O=C(NCCC[C@H](NS(=O)(=O)c1ccc(-c2ccc(Cl)cc2)cc1)C(=O)O)c1cccc(F)c1F [Example 97]        20 nM
3  Cc1ccc(S(=O)(=O)NC(=N)NCCC[C@H](NS(=O)(=O)c2ccc(-c3ccc(Cl)cc3)cc2)C(=O)O)cc1 [Example 21]        70 nM
4  Cc1ccc(S(=O)(=O)NC(=N)NCCC[C@@H](NS(=O)(=O)c2ccc(-c3ccc(Cl)cc3)cc2)C(=O)O)cc1 [Example 22]        80 nM

Please give IC50 for each item listed below.
1. O=C(NCCC[C@H](NS(=O)(=O)c1ccc(-c2ccc(Cl)cc2)cc1)C(=O)O)c1ccc(Cl)cc1 [Example 90]
2. O=C(NCCC[C@H](NS(=O)(=O)c1ccc(-c2ccc(Cl)cc2)cc1)C(=O)O)NS(=O)(=O)c1ccccc1 [Example 5]

1. 20 nM
2. 50 nM

* * *

Kindly state IC50 for each of the entries shown.
Molecular target: stromelysin (MMP-3) (Homo sapiens)
Construct: enzymatic activity of the catalytic domains of human stromelysin and of neutrophil collagenase
Test: Enzyme inhibition of the catalytic domain of human stromelysin (fluorogenic substrate)
Conditions: 15 min preincubation, pH=6.5, fluorescence 328 nm (ex)/393 nm (em)
Please report the result as a number followed by the unit.

Past entries and their recorded results:
                                   molecule                         measured_on  assay_value
0  O=C(NCCC[C@H](NS(=O)(=O)c1ccc(-c2ccc(Cl)cc2)cc1)C(=O)O)c1cccc(F)c1  stromelysin (MMP-3) (Homo sapiens)        20 nM
1  O=C(NCCC[C@H](NS(=O)(=O)c1ccc(-c2ccc(Cl)cc2)cc1)C(=O)O)c1ccc(C(F)(F)F)cc1  stromelysin (MMP-3) (Homo sapiens)        20 nM
2  O=C(NCCC[C@H](NS(=O)(=O)c1ccc(-c2ccc(Cl)cc2)cc1)C(=O)O)C1CSCN1 (stereo partly shown)  stromelysin (MMP-3) (Homo sapiens)        20 nM
3  CN(C)c1ccccc1C(=O)NCCC[C@H](NS(=O)(=O)c1ccc(-c2ccc(Cl)cc2)cc1)C(=O)O  stromelysin (MMP-3) (Homo sapiens)        20 nM
4  O=C(CCCc1ccccc1)NCCC[C@H](NS(=O)(=O)c1ccc(-c2ccc(Cl)cc2)cc1)C(=O)O  stromelysin (MMP-3) (Homo sapiens)        40 nM

Record IC50 for all entries; do not skip any.
1. O=C(NCCC[C@H](NS(=O)(=O)c1ccc(-c2ccc(Cl)cc2)cc1)C(=O)O)c1ccccc1Cl
2. O=C(NCCC[C@H](NS(=O)(=O)c1ccc(-c2ccc(Cl)cc2)cc1)C(=O)O)C1Cc2ccccc2N1 (stereo partly shown)

1. 7 nM
2. 20 nM

Provide reported IC50 for each item, in the same order as listed.
1. COc1ccc(C(=O)NCCC[C@H](NS(=O)(=O)c2ccc(-c3ccc(Cl)cc3)cc2)C(=O)O)c(OC)c1
2. O=C(NCCC[C@H](NS(=O)(=O)c1ccc(-c2ccc(Cl)cc2)cc1)C(=O)O)c1ccccc1
3. CCC(=O)NCCC[C@H](NS(=O)(=O)c1ccc(-c2ccc(Cl)cc2)cc1)C(=O)O
4. CCCCOc1ccc(C(=O)NCCC[C@H](NS(=O)(=O)c2ccc(-c3ccc(Cl)cc3)cc2)C(=O)O)cc1

30 nM
9 nM
20 nM
60 nM

Please go through the list and note IC50 for each molecule.
1. O=C(Cc1ccc(F)cc1)NCCC[C@H](NS(=O)(=O)c1ccc(-c2ccc(Cl)cc2)cc1)C(=O)O
2. COc1ccc(S(=O)(=O)NCCC[C@H](NS(=O)(=O)c2ccc(-c3ccc(Cl)cc3)cc2)C(=O)O)cc1OC

1. 20 nM
2. 10 nM

* * *

For each entry below, report its melting point value.

>>> print(df.to_string())
                                item_smiles  property_label    assay_value
0  Cc1cc(C)nc(NCCC[C@H](NS(=O)(=O)c2ccc(-c3ccccc3)cc2)C(=O)O)n1   melting point  226 to 227 °C
1  CC(C)(C)OC(=O)NCCC[C@H](NS(=O)(=O)c1ccc(Oc2ccc(Cl)cc2)cc1)C(=O)O   melting point  131 to 133 °C

Recorded melting point for O=C(O)[C@H](CCCN1Cc2ccccc2C1=O)NS(=O)(=O)c1ccc(Oc2ccc(Cl)cc2)cc1 , please?
223 to 225 °C

* * *

Biological target: stromelysin (MMP-3) (Homo sapiens, UniProt P08254)
Construct: enzymatic activity of the catalytic domains of human stromelysin and of neutrophil collagenase
Assay: Enzyme inhibition of the catalytic domain of human stromelysin (fluorogenic substrate)
Settings: 15 min preincubation, pH=6.5, fluorescence 328 nm (ex)/393 nm (em)
Please respond with reported pIC50 for every item in the list.
Give bare numbers, as −log10 of the molar value.

Answered cases to consult:
                                   molecule  property_label  assay_value
0  O=C(Cc1cccs1)NCCC[C@H](NS(=O)(=O)c1ccc(-c2ccc(Cl)cc2)cc1)C(=O)O           pIC50         8.00
1  O=C(O)[C@H](CCCN1C(=O)c2ccccc2S1(=O)=O)NS(=O)(=O)c1ccc(-c2ccc(Cl)cc2)cc1           pIC50         8.30
2  O=C(NCCC[C@H](NS(=O)(=O)c1ccc(-c2ccc(Cl)cc2)cc1)C(=O)O)c1ccc(F)cc1F           pIC50         7.70
3  Cc1cc(C)nc(NCCC[C@H](NS(=O)(=O)c2ccc(-c3ccc(Cl)cc3)cc2)C(=O)O)n1           pIC50         7.70
4  O=C(O)c1ccccc1S(=O)(=O)NCCC[C@H](NS(=O)(=O)c1ccc(-c2ccc(Cl)cc2)cc1)C(=O)O           pIC50         7.40
5  O=C(O)[C@H](CCCNC(=O)N1CCCC1)NS(=O)(=O)c1ccc(-c2ccc(Cl)cc2)cc1           pIC50         8.30
6  O=C(NCCC[C@H](NS(=O)(=O)c1ccc(-c2ccc(Cl)cc2)cc1)C(=O)O)c1cccc(Cl)c1           pIC50         7.52
7  O=C(NCCC[C@H](NS(=O)(=O)c1ccc(-c2ccccc2)cc1)C(=O)O)c1ccccc1O           pIC50         7.70

Please look at the items below and tell me pIC50 for each one, in order.
1. N#Cc1ccc(C(=O)NCCC[C@H](NS(=O)(=O)c2ccc(-c3ccc(Cl)cc3)cc2)C(=O)O)cc1
2. COCC(=O)NCCC[C@H](NS(=O)(=O)c1ccc(-c2ccc(Cl)cc2)cc1)C(=O)O

1: 7.70; 2: 8.00

* * *

Biological target: neutrophil collagenase (MMP-8) (Homo sapiens)
Construct: enzymatic activity of the catalytic domains of human stromelysin and of neutrophil collagenase
Sequence (P22894 100-262 limits assumed): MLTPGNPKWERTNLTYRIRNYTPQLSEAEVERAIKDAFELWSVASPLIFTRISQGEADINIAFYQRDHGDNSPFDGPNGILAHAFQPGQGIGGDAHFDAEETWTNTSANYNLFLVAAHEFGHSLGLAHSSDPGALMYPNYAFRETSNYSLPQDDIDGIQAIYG
Assay: Enzyme inhibition of the catalytic domain of neutrophil collagenase (fluorogenic substrate)
Details: 15 min preincubation, pH=6.5, fluorescence 328 nm (ex)/393 nm (em)
PROPERTY_LABEL: IC50 (nM)
Numbers only, in nM.

Sample records with IC50:
>>> print(df.to_string())
                                   molecule  assay_value
0  CC1CC1C(=O)NCCC[C@H](NS(=O)(=O)c1ccc(-c2ccc(Cl)cc2)cc1)C(=O)O (stereo partly shown)            2
1  C[C@H](NC(=O)OC(C)(C)C)C(=O)NCCC[C@H](NS(=O)(=O)c1ccc(-c2ccc(Cl)cc2)cc1)C(=O)O            6
2  O=C(NCCC[C@H](NS(=O)(=O)c1ccc(-c2ccc(Cl)cc2)cc1)C(=O)O)C1CSCN1 (stereo partly shown)            4
3  O=C(NCCC[C@H](NS(=O)(=O)c1ccc(-c2ccc(Cl)cc2)cc1)C(=O)O)NS(=O)(=O)c1ccccc1 (single isomer, unassigned) [Example 61]            2
4  O=C(NCCC[C@H](NS(=O)(=O)c1ccc(-c2ccc(Cl)cc2)cc1)C(=O)O)c1cccnc1            3

For every item below, please supply its IC50.
1. COCC(=O)NCCC[C@H](NS(=O)(=O)c1ccc(-c2ccc(Cl)cc2)cc1)C(=O)O
2. O=C(NCCC[C@H](NS(=O)(=O)c1ccc(-c2ccc(Cl)cc2)cc1)C(=O)O)c1ccc(Cl)cc1Cl

1: 3; 2: 3
